biological target: Heat shock protein HSP90 (Homo sapiens, UniProt P07900+P08238); assay: Inhibition of HSP90 ATPase activity (unknown origin); format: protein assay
parameter: IC50
Express your answer as a number followed by its unit.

CCNC(=O)c1noc(-c2cc(C(C)C)c(O)cc2O)c1-c1cnn(CC)c1 : 532 nM
CCNC(=O)c1noc(-c2cc(C(C)C)c(O)cc2O)c1-c1cc(CF)no1 : 410 nM
CCNC(=O)c1noc(-c2cc(C(C)C)c(O)cc2O)c1-c1cc(C(N)=O)no1 : 657 nM

Query: Output IC50 of CCNC(=O)c1noc(-c2cc(C(C)C)c(O)cc2O)c1-c1cc(CN2CCN(C)CC2)no1
Result: 572 nM

Query: Output IC50 of CCNC(=O)c1noc(-c2cc(C(C)C)c(O)cc2O)c1-c1cc(C(=O)O)no1
Result: 1870 nM
